For each entry below, report its cell proliferation value.
# Test system: MDAMB468
# ASSAY_REMARKS: cell proliferation (confluence) relative to DMSO control; higher = less growth inhibition
# EXPERIMENTAL_CONDITIONS: 5 uM; 6 d
Quick reminder: number only, in %, skip the unit.

Record CCCc1cc(C)n(C)c(=O)c1CN(C)C(=O)c1cc(-c2ccc(N3CCN(C(C)C)CC3)nc2)cc2c1cnn2C(C)C . Reported cell proliferation: 70.4

The reported cell proliferation of the molecule O=C(c1ccc(C(=O)N2CCC(N3CCCC3)CC2)c(Nc2ccccc2)c1)N1CCC(N2CCCC2)CC1 was 74.9

Value of measured cell proliferation for the entry CCOC(=O)CCNc1cc(N2CCc3ccccc3CC2)nc(-c2cccnc2)n1 : 71.9

cell proliferation reading for CCOC(=O)CCNc1cc(N2CCc3ccccc3CC2)nc(-c2ccccn2)n1 : 9.55

cell proliferation recorded for this molecule, CC(C)N(CCCNC(=O)Nc1ccc(C(C)(C)C)cc1)C[C@H]1O[C@@H](n2cc(Br)c3c(N)ncnc32)[C@H](O)[C@@H]1O , is 54.2

Entry COc1ccccc1C(=O)Nc1cc2c(cc1N1CCCC1)n(C)c(=O)n2C ; cell proliferation = 39.3

Record Cn1cc(CCn2cnc(-c3cnn(C)c3)c2-c2ccc(C#N)cc2)cn1 . Reported cell proliferation: 55.5

Notebook: COc1cc2c(NC3CCN(C(C)C)CC3)nc(C3CCCCC3)nc2cc1OCCCN1CCCC1 , cell proliferation read as 67.2

Lab note: COc1cc(C#N)ccc1S(=O)(=O)Nc1ccc2c(c1)cc(C)c(=O)n2C gave cell proliferation of 40.4
